assay: Phase I study CXR1002-001: plasma pharmacokinetics (LC-MS/MS); type: in vivo, human; conditions: human, plasma, oral, 750 mg, Patient 026, 750 mg, person, plasma, 504 hr (Day 22); read-out: Concentration
Measured Metric: concentration at 504 h (µM)

[[record]]
compound_smiles = "O=C(O)C(F)(F)C(F)(F)C(F)(F)C(F)(F)C(F)(F)C(F)(F)C(F)(F)F"
quantitative_readout = 479


----------
experiment: Phase I study CXR1002-001: plasma pharmacokinetics (LC-MS/MS); assay type: in vivo, human; details: human, plasma, oral, 200 mg, Patient 010 Dose 200 mg; 338 hr; read-out: Concentration
Measured Metric: concentration at 338 h (µM)

[[record]]
compound_smiles = "O=C(O)C(F)(F)C(F)(F)C(F)(F)C(F)(F)C(F)(F)C(F)(F)C(F)(F)F"
quantitative_readout = 118


----------
test: Phase I study CXR1002-001: plasma pharmacokinetics (LC-MS/MS); assay type: in vivo, human; details: human, plasma, oral, 1200 mg, Patient 033, 1200 mg, person, plasma, 170 hr; read-out: Concentration
Measured Metric: concentration at 170 h (µM)

[[record]]
compound = "O=C(O)C(F)(F)C(F)(F)C(F)(F)C(F)(F)C(F)(F)C(F)(F)C(F)(F)F [CXR1002]"
measured_metric = "concentration at 170 h"
unit_name = "µM"
quantitative_readout = 735


----------
assay: Phase I study CXR1002-001: plasma pharmacokinetics (LC-MS/MS); format: in vivo, human; details: human, plasma, oral, 300 mg, Patient 012 Dose 300 mg; 171 hr; read-out: Concentration
Measured Metric: concentration at 171 h (µM)

[[record]]
compound = "O=C(O)C(F)(F)C(F)(F)C(F)(F)C(F)(F)C(F)(F)C(F)(F)C(F)(F)F [CXR1002]"
measured_metric = "concentration at 171 h"
quantitative_readout = 148


----------
assay: Phase I study CXR1002-001: plasma pharmacokinetics (LC-MS/MS); type: in vivo, human; conditions: human, plasma, oral, 750 mg, Patient 027, 750 mg, person, plasma, 338 hr; read-out: Concentration
Measured Metric: concentration at 338 h

[[record]]
compound_smiles = "O=C(O)C(F)(F)C(F)(F)C(F)(F)C(F)(F)C(F)(F)C(F)(F)C(F)(F)F"
result = "384 µM"


----------
assay: Phase I study CXR1002-001: plasma pharmacokinetics (LC-MS/MS); format: in vivo, human; settings: human, plasma, oral, 750 mg, Patient 026, 750 mg, person, plasma, 506 hr; read-out: Concentration
Measured Metric: concentration at 506 h (µM)

[[record]]
compound_smiles = "O=C(O)C(F)(F)C(F)(F)C(F)(F)C(F)(F)C(F)(F)C(F)(F)C(F)(F)F"
measured_metric = "concentration at 506 h"
quantitative_readout = 625


----------
assay: Phase I study CXR1002-001: plasma pharmacokinetics (LC-MS/MS); assay type: in vivo, human; conditions: human, plasma, oral, 600 mg, Patient 020, 600 mg, person, plasma, 507 hr; read-out: Concentration
Measured Metric: concentration at 507 h (µM)

[[record]]
molecule = "O=C(O)C(F)(F)C(F)(F)C(F)(F)C(F)(F)C(F)(F)C(F)(F)C(F)(F)F [CXR1002]"
measured_metric = "concentration at 507 h"
quantitative_readout = 526

